B1: VTI1B (parent)
chain: ANETLAEMEEELRYAPLSFRNPMM

# Variants of: B1
# test details: protein stability index of a GFP-peptide fusion (GPS, HEK-293T) (PSI 1-6); higher = more stable;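 further: lentivirally expressed fusions sorted by FACS into six bins by GFP to DsRed ratio, PSI derived from sequencing read proportions per bin multiplied by bin number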
# condition label: c terminus: a fixed tail appended
observation type: protein stability index
# answer = number (no unit)

1) ANETLAEMEDELRYAPLSFRNPMM 1.62
2) ANVTLAEMEEELRYAPLSFRNPMM 2.13
3) ANETLAEMEEELRYAPLSDRNPMM 4.85
4) ANETLAEMEEELRYAPLFFRNPMM 2.64
5) ANETLAEMEEELRYAPTSFRNPMM 4.06
6) ANETLAEMEEENRYAPLSFRNPMM 4.82
7) ANETLAEMEEELHYAPLSFRNPMM 1.82
8) ANETLFEMEEELRYAPLSFRNPMM 3.33

query: Reported protein stability index for ANETLAEMEEELRYAPLSFRAPMM : what is it?
result: 3.81

query: Reported protein stability index for ANETLAEMEEELRYAPLSFRNPDM : what is it?
result: 4.13

query: Reported protein stability index for ANEYLAEMEEELRYAPLSFRNPMM : what is it?
result: 1.23
